Measured values drawn from ChEMBL document CHEMBL1129647 for this set.

- test_name: Clearance at an iv dose of 15.7 mg/Kg and po dose of 31.4 mg/Kg
- Assay type: ADME, organism-based
- conditions: rat, in vivo
measurement_kind: clearance
Put down the number, then write its unit next to it.

Input line: Give its clearance value. Item: CC(C)Nc1cccnc1N(C1CC1)C1CCN(C(=O)c2cc3cc(NS(C)(=O)=O)ccc3[nH]2)CC1
Output line: 22.6 mL/min/kg

###

Items are presented alongside their recorded IC90.
- Tested on: Human immunodeficiency virus 1
- test_name: Concentration required to inhibit P24 production by 90% against U-90,152 of HIV-1 IIIB (L100I, M230L)
- Assay type: functional
Express the result in nM but write the number alone.

- smiles_notation: "CCN(c1ncccc1NC(C)C)C1CCN(C(=O)c2cc3cc(NC(=O)N4CCN(C)CC4)ccc3[nH]2)CC1"
  IC90 [nM]: 110
- smiles_notation: "CCNc1cccnc1N(CC)C1CCN(C(=O)c2cc3cc(NS(C)(=O)=O)ccc3[nH]2)CC1"
  IC90 [nM]: 80
- smiles_notation: "CCN(c1ncccc1NC(C)(C)C)C1CCN(C(=O)c2cc3cc(NC(=O)N4CCN(C)CC4)ccc3[nH]2)CC1"
  IC90 [nM]: 160
- smiles_notation: "CCN(c1nc(F)ccc1NC(C)(C)C)C1CCN(C(=O)c2cc3cc(NS(C)(=O)=O)ccc3[nH]2)CC1"
  IC90 [nM]: 120

Now examine the next entry.
Input line: Can you look up IC90 on Human immunodeficiency virus 1 for CCCN(c1ncccc1NC(C)(C)C)C1CCN(C(=O)c2cc3cc(NS(C)(=O)=O)ccc3[nH]2)CC1 ?
Output line: 110
